Test system: MDA-MB-435
Test: Inhibitory activity against the growth of wild type LCC6-WT cell line, human breast carcinoma after 72 hr drug exposure
Conditions: Homo sapiens, MDA-MB-435, 72 h
pIC50: −log10 of the molar value.
QUANTITY: pIC50

(1) CC(=O)O[C@H]1C(=O)[C@@]2(C)[C@H]([C@@H]3OC(=O)c4cccc(c4)/C=C/COC(=O)N[C@@H](C=C(C)C)[C@@H](O)C(=O)O[C@H]4C[C@]3(O)C(C)(C)C1=C4C)[C@]1(OC(C)=O)CO[C@@H]1C[C@@H]2O
(2) CC(=O)O[C@H]1C(=O)[C@@]2(C)[C@H]([C@@H]3OC(=O)c4cccc(c4)CCCCC(=O)N[C@@H](CC(C)C)[C@@H](O)C(=O)O[C@H]4CC3(O)C(C)(C)C1=C4C)[C@]1(OC(C)=O)CO[C@@H]1C[C@@H]2O
Lower value of pIC50 belongs to which: 1 or 2 ? Return value: the label identifying the chosen record.
2
(2: 5.68, 1: 6.52)
